Origin of measurements: the supplement of paper PMC7724964

molecular target: PDCD6 23-191 EF-hand_5+EF-hand_7 (domain begin residue: 23, domain end residue: 191), O75340; test: phage ELISA signal ratio (GST-PRM binding over GST background); higher = stronger binding of peptide-phage to the PRM
Sequence (O75340 whole entry): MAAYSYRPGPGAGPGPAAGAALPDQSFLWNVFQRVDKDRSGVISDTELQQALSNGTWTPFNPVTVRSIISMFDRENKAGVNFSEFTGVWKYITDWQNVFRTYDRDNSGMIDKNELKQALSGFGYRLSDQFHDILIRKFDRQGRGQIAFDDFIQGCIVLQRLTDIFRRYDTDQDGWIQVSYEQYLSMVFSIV
Values of phage ELISA signal ratio greater than or equal to 30 map to 1; values below map to -1.

# binder, label-value
data = [
    ("LQLEPYGWMDWTWQTA", -1),
    ("LVGEMSRNVGWAAWVF", -1),
    ("YGWNQILLDESVFHMV", -1),
    ("VEQFPYGWADWVHEIV", 1),
    ("VFYGWQDWVVPGDWDV", -1),
]

Given the entry YGWDWEFLEGLQYGKV , answer whether its phage ELISA signal ratio meets or surpasses 30.
1

Given the entry AQWPMDIGWAPWLLDV , answer whether its phage ELISA signal ratio meets or surpasses 30.
-1

Given the entry IVALESPYGWQDWVTT , answer whether its phage ELISA signal ratio meets or surpasses 30.
-1

Given the entry MDMPYGWMQWVSTEPV , answer whether its phage ELISA signal ratio meets or surpasses 30.
-1

Given the entry LISGMNGWNYGWADWV , answer whether its phage ELISA signal ratio meets or surpasses 30.
-1
